The reader will find reported inhibition at 1.25 µM values listed item by item below.
- experimental_system: mUSP18 (Mus musculus, UniProt Q9WTV6)
- Construct: (46-368); His-tag (N); made in house
- Sequence (Q9WTV6 46-368): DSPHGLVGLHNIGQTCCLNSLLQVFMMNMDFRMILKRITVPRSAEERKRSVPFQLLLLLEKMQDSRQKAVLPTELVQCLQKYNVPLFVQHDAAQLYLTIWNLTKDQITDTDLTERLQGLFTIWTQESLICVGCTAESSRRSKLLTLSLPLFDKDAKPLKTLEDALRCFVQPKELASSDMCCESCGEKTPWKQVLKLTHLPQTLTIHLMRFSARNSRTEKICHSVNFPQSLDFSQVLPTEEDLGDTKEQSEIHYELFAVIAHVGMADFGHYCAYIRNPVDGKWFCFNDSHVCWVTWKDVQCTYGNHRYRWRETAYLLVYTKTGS
- test_name: High-throughput screening, ISG15ct-RhoMP, single dose 1.25 µM
- Type: biochemical, murine
- condition_context: mUSP18 %inhibition; carboxylic acid (CA) building block alone; read-out: %inh CA only

>  <molecule>
COc1ccccc1N1CC(C(=O)O)CCC1=O (centres unmarked) [CA409]

>  <experimental_system>
mUSP18 (Mus musculus, UniProt Q9WTV6)

>  <inhibition at 1.25 µM>
-0.2%

$$$$
>  <molecule>
O=C(O)c1ccc(F)c(S(=O)(=O)N2CCC2)c1 [CA305]

>  <experimental_system>
mUSP18 (Mus musculus, UniProt Q9WTV6)

>  <inhibition at 1.25 µM>
-6.19%

$$$$
>  <molecule>
O=C(O)c1ccc(Cn2cc(Br)cn2)o1 [CA224]

>  <experimental_system>
mUSP18 (Mus musculus, UniProt Q9WTV6)

>  <inhibition at 1.25 µM>
3.05%

$$$$
>  <molecule>
CC(C)(C)OC(=O)N[C@@H](Cc1cn(-c2ccc([N+](=O)[O-])cc2[N+](=O)[O-])cn1)C(=O)O [CA022]

>  <experimental_system>
mUSP18 (Mus musculus, UniProt Q9WTV6)

>  <inhibition at 1.25 µM>
-4.55%

$$$$
>  <molecule>
O=C(O)Cc1csc(-n2cccc2)n1 [CA183]

>  <experimental_system>
mUSP18 (Mus musculus, UniProt Q9WTV6)

>  <inhibition at 1.25 µM>
4.52%

$$$$
>  <molecule>
Cc1cc(C)n(-c2ccc(Cl)c(C(=O)O)n2)n1 [CA420]

>  <experimental_system>
mUSP18 (Mus musculus, UniProt Q9WTV6)

>  <inhibition at 1.25 µM>
-5.16%

$$$$
>  <molecule>
O=C(O)CC1(n2cnnn2)CCOCC1 [CA310]

>  <experimental_system>
mUSP18 (Mus musculus, UniProt Q9WTV6)

>  <inhibition at 1.25 µM>
3.18%

$$$$
>  <molecule>
O=C(O)c1cccn1Cc1ccccn1 [CA414]

>  <experimental_system>
mUSP18 (Mus musculus, UniProt Q9WTV6)

>  <inhibition at 1.25 µM>
-4.22%

$$$$
>  <molecule>
O=C(O)C(c1ccccc1)n1cnnn1 (centres unmarked) [CA225]

>  <experimental_system>
mUSP18 (Mus musculus, UniProt Q9WTV6)

>  <inhibition at 1.25 µM>
-0.48%

$$$$
>  <molecule>
O=C(O)Cc1ccc(NS(=O)(=O)c2cccc(C(F)(F)F)c2)cc1 [CA467]

>  <experimental_system>
mUSP18 (Mus musculus, UniProt Q9WTV6)

>  <inhibition at 1.25 µM>
-0.52%

$$$$
>  <molecule>
Cc1cc(OCC(=O)O)ccc1C(C)C [CA006]

>  <experimental_system>
mUSP18 (Mus musculus, UniProt Q9WTV6)

>  <inhibition at 1.25 µM>
-6.56%

$$$$
>  <molecule>
O=C(O)c1cccc(-c2ncon2)c1 [CA463]

>  <experimental_system>
mUSP18 (Mus musculus, UniProt Q9WTV6)

>  <inhibition at 1.25 µM>
-1.44%

$$$$
>  <molecule>
Cc1nc(COc2ccccc2C(=O)O)no1 [CA307]

>  <experimental_system>
mUSP18 (Mus musculus, UniProt Q9WTV6)

>  <inhibition at 1.25 µM>
9.87%

$$$$
>  <molecule>
O=C(O)c1cccnc1Oc1ccccc1Br [CA395]

>  <experimental_system>
mUSP18 (Mus musculus, UniProt Q9WTV6)

>  <inhibition at 1.25 µM>
-7.15%

$$$$
>  <molecule>
Cc1cc(C(=O)O)c(C)n1-c1cccnc1 [CA297]

>  <experimental_system>
mUSP18 (Mus musculus, UniProt Q9WTV6)

>  <inhibition at 1.25 µM>
-2.57%

$$$$
>  <molecule>
CN1CCN(c2ccc(C(=O)O)cc2)CC1 [CA085]

>  <experimental_system>
mUSP18 (Mus musculus, UniProt Q9WTV6)

>  <inhibition at 1.25 µM>
5.37%

$$$$
>  <molecule>
O=C(O)C1CC(=O)N(C2CCCCCC2)C1 (centres unmarked) [CA247]

>  <experimental_system>
mUSP18 (Mus musculus, UniProt Q9WTV6)

>  <inhibition at 1.25 µM>
2.25%

$$$$
>  <molecule>
O=C(O)c1ccc(N2CCCC2)c(F)c1 [CA295]

>  <experimental_system>
mUSP18 (Mus musculus, UniProt Q9WTV6)

>  <inhibition at 1.25 µM>
-4.32%

$$$$
>  <molecule>
O=C(O)C1CC(OCc2ccccc2)C1 (centres unmarked) [CA119]

>  <experimental_system>
mUSP18 (Mus musculus, UniProt Q9WTV6)

>  <inhibition at 1.25 µM>
13.6%

$$$$
>  <molecule>
O=C(O)c1ccc(N2CCCC2)cc1F [CA064]

>  <experimental_system>
mUSP18 (Mus musculus, UniProt Q9WTV6)

>  <inhibition at 1.25 µM>
-1.15%

$$$$
>  <molecule>
O=C(O)C1CC(=O)N(CCN2CCOCC2)C1 (centres unmarked) [CA201]

>  <experimental_system>
mUSP18 (Mus musculus, UniProt Q9WTV6)

>  <inhibition at 1.25 µM>
1.58%

$$$$
>  <molecule>
O=C(O)c1cnc(-c2cccs2)s1 [CA192]

>  <experimental_system>
mUSP18 (Mus musculus, UniProt Q9WTV6)

>  <inhibition at 1.25 µM>
11.7%

$$$$
>  <molecule>
O=C(O)c1sccc1S(=O)(=O)NC1CCCCCC1 [CA367]

>  <experimental_system>
mUSP18 (Mus musculus, UniProt Q9WTV6)

>  <inhibition at 1.25 µM>
1.29%

$$$$
>  <molecule>
O=C(O)C(OC1CCOCC1)c1ccccc1 (centres unmarked) [CA405]

>  <experimental_system>
mUSP18 (Mus musculus, UniProt Q9WTV6)

>  <inhibition at 1.25 µM>
-0.68%

$$$$
>  <molecule>
CN(CC1CC1)c1ccc(C(F)(F)F)cc1C(=O)O [CA386]

>  <experimental_system>
mUSP18 (Mus musculus, UniProt Q9WTV6)

>  <inhibition at 1.25 µM>
-2.54%

$$$$
>  <molecule>
Cc1ccccc1COc1cccc(CC(=O)O)c1 [CA288]

>  <experimental_system>
mUSP18 (Mus musculus, UniProt Q9WTV6)

>  <inhibition at 1.25 µM>
3.53%

$$$$
>  <molecule>
O=C(O)c1ccccc1Cn1cncn1 [CA384]

>  <experimental_system>
mUSP18 (Mus musculus, UniProt Q9WTV6)

>  <inhibition at 1.25 µM>
-2.51%

$$$$
>  <molecule>
O=C(O)Cc1csc(-c2ccccc2)n1 [CA428]

>  <experimental_system>
mUSP18 (Mus musculus, UniProt Q9WTV6)

>  <inhibition at 1.25 µM>
-0.27%

$$$$
>  <molecule>
COCC(=O)O [CA080]

>  <experimental_system>
mUSP18 (Mus musculus, UniProt Q9WTV6)

>  <inhibition at 1.25 µM>
-8.74%

$$$$

* * *

- experimental_system: UCHL1 (Homo sapiens, UniProt P09936)
- Sequence (P09936 whole entry): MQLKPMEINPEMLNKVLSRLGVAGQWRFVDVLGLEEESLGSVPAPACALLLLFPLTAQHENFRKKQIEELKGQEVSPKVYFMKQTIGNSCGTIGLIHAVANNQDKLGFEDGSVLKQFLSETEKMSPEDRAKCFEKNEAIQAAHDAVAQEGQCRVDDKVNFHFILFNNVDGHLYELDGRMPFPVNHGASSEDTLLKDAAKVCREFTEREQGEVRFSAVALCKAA
pIC50: −log10 of the molar value.

>  <item_smiles>
N#CN1CC[C@@H](NC(=O)c2ccc(F)c(F)c2)C1

>  <modifier>
<

>  <pIC50>
3.70

$$$$
>  <item_smiles>
COc1ccccc1-c1cc(C(=O)N[C@@H]2CCN(C#N)C2)n[nH]1

>  <modifier>
=

>  <pIC50>
3.96

$$$$
>  <item_smiles>
N#CN1CC[C@@H](NC(=O)c2ccc(N3CCCC3)cc2F)C1

>  <modifier>
<

>  <pIC50>
3.70

$$$$
>  <item_smiles>
N#CN1CC[C@@H](NC(=O)c2cc(-c3cccc(Cl)c3)no2)C1

>  <modifier>
=

>  <pIC50>
4.27

$$$$

* * *

- experimental_system: USP32 (Homo sapiens, UniProt Q8NFA0)
- Construct: (1-1604); His-tag (N); made in house
- Sequence (Q8NFA0 whole entry): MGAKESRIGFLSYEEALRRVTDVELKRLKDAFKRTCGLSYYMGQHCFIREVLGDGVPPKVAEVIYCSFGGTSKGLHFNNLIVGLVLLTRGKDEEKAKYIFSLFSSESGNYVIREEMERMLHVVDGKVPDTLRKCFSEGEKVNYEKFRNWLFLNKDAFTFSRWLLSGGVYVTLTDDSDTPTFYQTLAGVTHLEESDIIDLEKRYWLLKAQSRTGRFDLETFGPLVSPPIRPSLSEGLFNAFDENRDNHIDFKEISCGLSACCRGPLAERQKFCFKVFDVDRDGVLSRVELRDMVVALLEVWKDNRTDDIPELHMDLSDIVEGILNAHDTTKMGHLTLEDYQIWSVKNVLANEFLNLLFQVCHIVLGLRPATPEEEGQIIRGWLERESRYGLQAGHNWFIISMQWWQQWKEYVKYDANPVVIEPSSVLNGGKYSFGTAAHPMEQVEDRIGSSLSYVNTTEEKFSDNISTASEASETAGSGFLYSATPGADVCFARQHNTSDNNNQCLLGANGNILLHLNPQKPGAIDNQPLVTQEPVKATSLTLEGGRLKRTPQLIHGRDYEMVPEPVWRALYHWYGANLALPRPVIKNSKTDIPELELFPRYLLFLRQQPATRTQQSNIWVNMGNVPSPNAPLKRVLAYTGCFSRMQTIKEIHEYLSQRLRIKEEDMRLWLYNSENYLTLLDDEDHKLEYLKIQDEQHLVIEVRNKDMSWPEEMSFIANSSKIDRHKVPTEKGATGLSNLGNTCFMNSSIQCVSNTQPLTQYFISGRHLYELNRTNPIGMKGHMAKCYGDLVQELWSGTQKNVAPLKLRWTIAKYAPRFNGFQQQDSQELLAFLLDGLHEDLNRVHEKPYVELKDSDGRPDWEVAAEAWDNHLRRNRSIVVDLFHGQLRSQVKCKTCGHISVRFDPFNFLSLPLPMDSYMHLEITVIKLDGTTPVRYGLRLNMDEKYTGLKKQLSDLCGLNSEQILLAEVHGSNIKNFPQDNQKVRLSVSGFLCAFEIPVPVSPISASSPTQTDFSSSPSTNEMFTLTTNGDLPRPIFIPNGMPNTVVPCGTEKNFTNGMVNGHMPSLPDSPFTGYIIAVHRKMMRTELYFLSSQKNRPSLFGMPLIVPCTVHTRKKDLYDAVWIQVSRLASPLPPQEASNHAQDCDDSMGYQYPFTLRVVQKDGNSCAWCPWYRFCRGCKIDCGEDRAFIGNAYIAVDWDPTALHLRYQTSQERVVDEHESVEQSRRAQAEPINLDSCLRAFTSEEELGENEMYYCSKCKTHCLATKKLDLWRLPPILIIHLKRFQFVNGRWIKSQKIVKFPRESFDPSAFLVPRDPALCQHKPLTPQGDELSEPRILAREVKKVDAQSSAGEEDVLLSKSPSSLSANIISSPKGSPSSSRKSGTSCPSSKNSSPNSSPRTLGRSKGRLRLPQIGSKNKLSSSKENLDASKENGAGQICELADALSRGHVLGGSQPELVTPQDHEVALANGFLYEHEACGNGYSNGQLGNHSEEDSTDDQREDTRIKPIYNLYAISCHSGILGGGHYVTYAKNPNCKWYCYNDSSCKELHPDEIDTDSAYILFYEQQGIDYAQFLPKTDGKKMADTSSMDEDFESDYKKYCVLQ
- test_name: High-throughput screening, Ub-RhoMP, single dose 1.25 µM
- Type: biochemical
- condition_context: crude in-plate synthesized compound, 1.25 µM assuming full conversion
%inhibition USP32 vs 20%: at or above is Fulfilled, below is Not fulfilled.

>  <molecule>
N#CN1CC[C@@H](NC(=O)c2ncoc2-c2cccs2)C1

>  <discrete_label>
Not fulfilled

$$$$
>  <molecule>
N#CN1CC[C@@H](NC(=O)C(Cc2c[nH]cn2)NS(=O)(=O)c2ccc(Cl)cc2)C1 (some centres unmarked)

>  <discrete_label>
Fulfilled

$$$$
>  <molecule>
N#CN1CC[C@@H](NC(=O)Cc2csc(-c3cnccn3)n2)C1

>  <discrete_label>
Fulfilled

$$$$
>  <molecule>
N#CN1CC[C@@H](NC(=O)c2nc(N3CCCC3)ncc2Cl)C1

>  <discrete_label>
Not fulfilled

$$$$
>  <molecule>
N#CN1CC[C@@H](NC(=O)CCN(Cc2ccccc2)S(=O)(=O)c2c(Cl)cccc2Cl)C1

>  <discrete_label>
Fulfilled

$$$$
